- System: trypsin
- METHOD_NOTES: Proteolysis of peptoids and peptides by trypsin (RP-HPLC)
- CONDITION: trypsin (isolated protease) in Tris buffer, pH 8
Where a SMILES comes first, the peptide text is derived from it. The star is where a group is joined. Fmoc = O=C(OCC1c2ccccc2-c2ccccc21)*
PROPERTY_MEASURED: remaining at 3 h, 0.476 mg/mL (%)
Numbers only here, please. The scale is %.

*Q* Value lookup for remaining at 3 h, 0.476 mg/mL; key = CC(C)C[C@H](NC(=O)OCC1c2ccccc2-c2ccccc21)C(=O)N[C@@H](CC(=O)O)C(=O)N[C@@H](Cc1ccccc1)C(=O)N[C@@H](CO)C(=O)N[C@@H](CCCCN)C(=O)NCC(=O)O [PEPTIDE, FMOC-LDFSKG-OH] (Fmoc-LDFSKG-OH)
*A* 0
